This collection of values is drawn from PubChem BioAssay (NCI).

# test_details: NCI Yeast Anticancer Drug Screen. Data for the mec2-1 strain (AID 157)
# setup_conditions: S. cerevisiae mec2-1 strain, at 50.0 µM (retest, dose inferred, filed as 5.0), hits give high values
Compounds without any hit were thinned out: in the full panel of roughly 79,000, 15% have a hit.
The label depends only on growth inhibition: true (1) if it is at least 60%, false (0) if it is smaller.

[[record]]
compound = "O=S1(=O)CCC2=CC(C(F)(F)F)=CC(C(F)(F)F)=CN21"
group_label = "true (1)"

[[record]]
compound = "Cc1cccc2c(Cl)c3cccc(C)c3nc12"
group_label = "false (0)"

[[record]]
compound = "O=C(c1cc(=O)c2ccc(O)cc2o1)c1ccc(Cl)cc1Cl"
group_label = "true (1)"

[[record]]
compound = "CCN(CC)CCC(=O)Nc1ccc2sc3ccccc3c(=O)c2n1"
group_label = "false (0)"

[[record]]
compound = "CCOC(=O)/C(=C\\c1ccc(F)cc1)C(C)=O"
group_label = "true (1)"

[[record]]
compound = "C=CC(C)(C)N1C(=O)C(C(C)=O)=C(O)C1Cc1c[nH]c2ccccc12 (stereo not drawn)"
group_label = "false (0)"

[[record]]
compound = "CCOP(=O)(OCC)/C(C#N)=C/c1ccc(-c2ccc(F)cc2F)o1"
group_label = "true (1)"

[[record]]
compound = "COc1cc(OC)c(CSCC(NC(=O)OCC2c3ccccc3-c3ccccc32)C(=O)O)c(OC)c1 (stereo not drawn)"
group_label = "true (1)"

[[record]]
compound = "CC(C)(C)c1ccc2c(c1)C(=O)c1ccccc1C2=O"
group_label = "false (0)"

[[record]]
compound = "c1ccc(-c2cc(C3CO3)c3ccccc3n2)cc1 (stereo not drawn)"
group_label = "false (0)"

[[record]]
compound = "CC(=O)O/N=C1C=C/C(=C(/C#N)c2ccccc2)C=C/1C"
group_label = "true (1)"

[[record]]
compound = "COC(=O)C(Cc1c[nH]c2ccccc12)N1CN(C)c2ccccc2C1=O (stereo not drawn)"
group_label = "false (0)"

[[record]]
compound = "CCCN=Cc1cc(Cc2ccc(O)c(C=NCCC)c2)ccc1O"
group_label = "true (1)"

[[record]]
compound = "CC1=NN(C(=O)CC(=O)NC(=O)/C=C\\c2ccccc2)C(=O)C1N=Nc1ccc([N+](=O)[O-])cc1 (stereo not drawn)"
group_label = "false (0)"

[[record]]
compound = "COc1ccc(C(=O)/C=C\\c2ccc(Cl)c(Cl)c2)cc1"
group_label = "false (0)"

[[record]]
compound = "CO[C@@]1([C@@H](Cl)c2ccccc2)C(=O)N(C)/C(=C\\c2ccccc2)C(=O)N1C"
group_label = "false (0)"

[[record]]
compound = "COc1ccccc1NC(=O)c1ccc(Cl)cc1"
group_label = "false (0)"

[[record]]
compound = "CCCCCCCCCCCNC=O"
group_label = "true (1)"

[[record]]
compound = "O=C1NC(c2cccc(OCc3ccccc3)c2)Nc2ccccc21 (stereo not drawn)"
group_label = "true (1)"

[[record]]
compound = "CN(C)CCCn1c2c3ccccc3ccc2c2oc(=O)c3ccccc3c21"
group_label = "true (1)"

[[record]]
compound = "CCCCCCCCCC(=O)N(CCC)CCC"
group_label = "true (1)"

[[record]]
compound = "CC(=O)NC(c1nc2cc(C)c(C)cc2[nH]1)c1nc2cc(C)c(C)cc2[nH]1"
group_label = "true (1)"


---

Each record here notes measured growth inhibition.
# test_details: NCI Yeast Anticancer Drug Screen. Data for the rad14 strain (AID 159);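 further: 0% = growth of vehicle-treated control cultures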
# setup_conditions: S. cerevisiae rad14 strain growth inhibition; at 33.0 µM; hits give high values
# Description: Growth inhibition of yeast strains with defined genetic alterations is measured as a screen for potential anti-cancer activity. Selected strains with alterations in DNA damage repair or cell cycle control were exposed to compounds and growth inhibition was measured relative to vehicle treated controls. The strain used in this assay is rad14
About 79,000 compounds went through this panel and 15% of them were active in at least one assay; those are over-represented in the sample as a whole.
quantity: growth inhibition (%)

[[record]]
smiles_structure = "O=C1c2ccccc2-c2cc3ccccc3c(=O)n21"
readout_number = 66

[[record]]
smiles_structure = "CCC(C)(C)c1ccc(Oc2ccccc2)c(N)c1"
readout_number = 99

[[record]]
smiles_structure = "O=C(Nc1cccs1)c1ccccc1"
readout_number = 23

[[record]]
smiles_structure = "Oc1c2c(c(O)c3ccccc13)C1(N=N2)c2ccccc2Oc2ccccc21"
readout_number = 96

[[record]]
smiles_structure = "CCOC(=O)Nc1ccc(C)c(NC(=O)OCC)c1"
readout_number = 15

[[record]]
smiles_structure = "O=C(/N=N/C(=O)Oc1ccccc1)Oc1ccccc1"
readout_number = -15

[[record]]
smiles_structure = "NNc1ccccc1-c1nc2ccccc2[nH]1"
readout_number = 0


---

# test_details: NCI Yeast Anticancer Drug Screen. Data for the mec2-1 strain (AID 157)
# setup_conditions: S. cerevisiae mec2-1 strain, at 5.0 µM (retest, dose inferred, filed as 0.5), hits give high values
Compounds without any hit were thinned out: in the full panel of roughly 79,000, 15% have a hit.
quantity: growth inhibition (%)

[[record]]
molecule = "O=C1C=C(Br)C(=O)c2ccccc21"
unit_annotation = "%"
readout_number = 39

[[record]]
molecule = "O=[N+]([O-])c1cc[n+]([O-])c(Cl)c1"
unit_annotation = "%"
readout_number = -3

[[record]]
molecule = "OC(CC(O)(C(F)(F)F)C(F)(F)F)c1ccc(C(O)CC(O)(C(F)(F)F)C(F)(F)F)cc1 (stereo not given)"
unit_annotation = "%"
readout_number = 42

[[record]]
molecule = "O=c1c2ccccc2nc(-c2cccc([N+](=O)[O-])c2)n1O"
unit_annotation = "%"
readout_number = 7

[[record]]
molecule = "O=C(c1ccccc1)[C@H]1Nc2ccc(Cl)cc2[C@H]2OCCC[C@@H]12"
unit_annotation = "%"
readout_number = -13

[[record]]
molecule = "CC1=NN(C(=O)CC(=O)NC(=O)/C=C\\c2ccccc2)C(=O)C1N=Nc1ccc([N+](=O)[O-])cc1 (stereo not given)"
unit_annotation = "%"
readout_number = -13

[[record]]
molecule = "O=[N+]([O-])c1cccc2nc3ccccc3c(NCCCN3CCCCC3)c12"
unit_annotation = "%"
readout_number = 97

[[record]]
molecule = "CC(C)C(=O)CC(Sc1ccc(N)cc1)c1ccccc1 (stereo not given)"
unit_annotation = "%"
readout_number = -2

[[record]]
molecule = "O=C1Oc2ccccc2C(=O)/C1=C/N1C(=O)N/C(=C\\c2ccccc2Br)C1=O"
unit_annotation = "%"
readout_number = -15

[[record]]
molecule = "COc1ccc2nc3cccc([N+](=O)[O-])c3c(NCCNCCO)c2c1"
unit_annotation = "%"
readout_number = 1


---

# test_details: NCI Yeast Anticancer Drug Screen. Data for the rad50 strain (AID 155);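 further: 0% = growth of vehicle-only cultures of the same strain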
# setup_conditions: S. cerevisiae rad50 strain growth inhibition; at 50.0 µM (retest, dose inferred, filed as 5.0); hits give high values
# Description: Growth inhibition of yeast strains with defined genetic alterations is measured as a screen for potential anti-cancer activity. Selected strains with alterations in DNA damage repair or cell cycle control were exposed to compounds and growth inhibition was measured relative to vehicle treated controls. The strain used in this assay is rad50
The panel holds about 79,000 compounds, 15% with a hit somewhere; the sample as a whole holds those more often.
quantity: growth inhibition (%)

[[record]]
compound = "COC(=O)C1CCCCC1C(=O)Nc1ccccc1 (stereo not drawn)"
quantity = "growth inhibition"
unit_annotation = "%"
readout_number = 2

[[record]]
compound = "C=COC(=O)N[C@H]1CCc2cc(OC)c(OC)c(OC)c2-c2ccc(SC)c(=O)cc21"
quantity = "growth inhibition"
unit_annotation = "%"
readout_number = 34

[[record]]
compound = "CNC(=O)OCc1c2ccncc2c(C)c2c1[nH]c1ccccc12"
quantity = "growth inhibition"
unit_annotation = "%"
readout_number = 75

[[record]]
compound = "Fc1cc(F)c(F)c(S)c1F"
quantity = "growth inhibition"
unit_annotation = "%"
readout_number = 91

[[record]]
compound = "O=C1C=C(Br)C(=O)c2ccccc21"
quantity = "growth inhibition"
unit_annotation = "%"
readout_number = 99

[[record]]
compound = "O=[N+]([O-])c1ccc2[nH]c3c(-c4ccccc4)nccc3c2c1"
quantity = "growth inhibition"
unit_annotation = "%"
readout_number = 96

[[record]]
compound = "CN1C(=O)C(CC(=O)O)NC1=S (stereo not drawn)"
quantity = "growth inhibition"
unit_annotation = "%"
readout_number = 14

[[record]]
compound = "COc1ccc2nc3cccc([N+](=O)[O-])c3c(NCCNCCN(C)C)c2c1"
quantity = "growth inhibition"
unit_annotation = "%"
readout_number = 97

[[record]]
compound = "COC(=O)C(=O)c1c(-c2ccc(Cl)c(Cl)c2)[nH]c2[nH]n(-c3ccccc3)c(=O)c2c1=O"
quantity = "growth inhibition"
unit_annotation = "%"
readout_number = 85

[[record]]
compound = "C/C(=N\\OCC(O)CNCCSCc1ccccc1)c1ccccc1Cl (stereo not drawn)"
quantity = "growth inhibition"
unit_annotation = "%"
readout_number = 69

[[record]]
compound = "Cc1c2c(nc3ccccc13)C(=O)c1cccnc1C2=O"
quantity = "growth inhibition"
unit_annotation = "%"
readout_number = 90

[[record]]
compound = "Cc1ccc(S(=O)(=O)N/N=C/C(Br)=C(/Br)C(=O)O)cc1"
quantity = "growth inhibition"
unit_annotation = "%"
readout_number = 79

[[record]]
compound = "Cc1c2cc[n+](CCO)cc2c(C)c2c1[nH]c1ccc(O)cc12"
quantity = "growth inhibition"
unit_annotation = "%"
readout_number = 93

[[record]]
compound = "CC12CCC(CC(=O)/C1=C(/Br)I)C2(C)C (stereo not drawn)"
quantity = "growth inhibition"
unit_annotation = "%"
readout_number = 80

[[record]]
compound = "O=[N+]([O-])c1ccc(S(=O)(=O)Cc2ccccc2)c([N+](=O)[O-])c1"
quantity = "growth inhibition"
unit_annotation = "%"
readout_number = 100

[[record]]
compound = "CCC(=O)Nc1ccc(N=NN(C)C)cc1"
quantity = "growth inhibition"
unit_annotation = "%"
readout_number = 45

[[record]]
compound = "CC1=CC(C)(C)SC(SSSC2=NC(C)=CC(C)(C)S2)=N1"
quantity = "growth inhibition"
unit_annotation = "%"
readout_number = 48

[[record]]
compound = "Cc1cc2nc3ccccc3n2c2ccccc12"
quantity = "growth inhibition"
unit_annotation = "%"
readout_number = 86

[[record]]
compound = "COc1cccc(C(NC2=NCCC=N2)c2cc3c(cc2O)OCO3)c1O (stereo not drawn)"
quantity = "growth inhibition"
unit_annotation = "%"
readout_number = 72

[[record]]
compound = "O=P(C(=S)Nc1c(Cl)cccc1Cl)(c1ccccc1)c1ccccc1"
quantity = "growth inhibition"
unit_annotation = "%"
readout_number = 99

[[record]]
compound = "O=C(O)C1CCCCC1c1c2ccc(=O)cc-2oc2cc(O)ccc12 (stereo not drawn)"
quantity = "growth inhibition"
unit_annotation = "%"
readout_number = 95

[[record]]
compound = "CCC[CH2][Sn]([CH2]CCC)([CH2]CCC)/[C](=C/[Si](C)(C)c1ccccc1)c1ccc2c(c1)OCO2"
quantity = "growth inhibition"
unit_annotation = "%"
readout_number = 67

[[record]]
compound = "CC1(c2ccccc2)O[C@@H]2C[C@H]3[C@@H]4CCC5=CC(=O)C=C[C@]5(C)[C@@]4(F)[C@@H](O)C[C@]3(C)[C@]2(C(=O)CO)O1 (stereo partly drawn)"
quantity = "growth inhibition"
unit_annotation = "%"
readout_number = 35

